- target under test: Recombinant human CD33 protein (Homo sapiens (Human))
- Sequence (P20138 18-259): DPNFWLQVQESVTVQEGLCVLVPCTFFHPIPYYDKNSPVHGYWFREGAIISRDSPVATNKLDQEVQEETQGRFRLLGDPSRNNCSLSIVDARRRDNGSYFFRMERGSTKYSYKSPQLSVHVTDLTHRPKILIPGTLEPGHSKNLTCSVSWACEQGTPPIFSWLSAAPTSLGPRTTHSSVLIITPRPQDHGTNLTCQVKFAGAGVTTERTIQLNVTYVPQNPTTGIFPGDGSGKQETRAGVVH
- protocol text: CD33 competitive binding assay for HTS drug screen (fluorescent multivalent sialic acid probe)
- Text: This is a competitive binding assay that uses recombinant CD33 immobilized to a plate and a fluorescently-labeled multivalent sialic acid analog as a probe. Binding of drug to the site on CD33 to which sialic acid binds is detected by reduced binding of the fluorescent probe. […] Bound complex was then detected using a standard plate reader to quantify FITC fluorescence.
pEC50: −log10 of the molar value.
measurement type: pEC50

I = CC(=O)N[C@H]1[C@H]([C@H](O)[C@H](O)CNC(=O)c2cc(C)c(O)c(C)c2)O[C@@](CCN2CCOC[C@@]23CCN(C(=O)CC2CCOCC2)C3)(C(=O)O)C[C@@H]1O
II = Cc1cc(C(=O)NC[C@@H](O)[C@@H](O)[C@@H]2O[C@@](C/C=C/c3cccc(CNC(=O)C4CCOCC4)c3)(C(=O)O)C[C@H](O)[C@H]2NC(=O)Cn2cc(C3CCCCC3)nn2)cc(C)c1O
Name the one with the greater pEC50 value, either I or II as given. # respond with the chosen item's label
I

a = COc1c(C)cc(C(=O)NC[C@@H](O)[C@@H](O)[C@@H]2O[C@@](CCN3CCOC[C@@]34CCN(C(=O)OC(C)(C)C)C4)(C(=O)O)C[C@H](O)[C@H]2NC(C)=O)cc1C
b = CC(=O)N[C@H]1[C@H]([C@H](O)[C@H](O)CNC(=O)c2cc(Cl)c(O)c(Cl)c2)O[C@@](CC2OC(C)(C)O[C@H]2c2cccc(C(=O)NCc3ccccc3)c2)(C(=O)O)C[C@@H]1O (stereo partly shown)
c = CC(=O)N[C@H]1[C@H]([C@H](O)[C@H](O)CNC(=O)c2cc(C)c(O)c(C)c2)O[C@@](CCN2CCOC[C@@]23CCN(C(=O)N[C@@H](C)c2ccccc2)C3)(C(=O)O)C[C@@H]1O
Order the records so the highest pEC50 appears first and the lowest last. Provide your answer as the labels ordered per the instruction.
c, a, b

A = CC(=O)N[C@H]1[C@H]([C@H](O)[C@H](O)CNC(=O)c2cccc(Cl)c2)O[C@@](CCN2CCOC[C@@]23CCN(C(=O)OC(C)(C)C)C3)(C(=O)O)C[C@@H]1O
B = CC(=O)N[C@H]1[C@H]([C@H](O)[C@H](O)CNC(=O)c2cc(C)c(O)c(C)c2)O[C@@](CC2OC(C)(C)O[C@H]2c2cccc(NC(=O)C(=O)[C@H](C)c3cc(C4CC4)no3)c2)(C(=O)O)C[C@@H]1O (stereo partly shown)
Consider entries A and B . Which has the numerically lower pEC50? # respond with the chosen item's label
B

====

- target under test: Recombinant human CD33 protein (Homo sapiens (Human))
- protocol text: CD33 competitive binding assay for HTS drug screen (fluorescent multivalent sialic acid probe)
measurement type: EC50 (µM)

I = CC(=O)N[C@H]1[C@H]2O[C@](C(=O)O)(C/C=C/COC[C@@H](NC(=O)[C@@H]3CCCOC3)COCCCOc3c(C)cc(cc3C)C(=O)NC[C@@H](O)[C@H]2O)C[C@@H]1O
II = Cc1cc(C(=O)NC[C@@H](O)[C@@H](O)[C@@H]2O[C@@](CC(O)[C@@H](O)c3cccc(NC(=O)OC(C)(C)C)c3)(C(=O)O)C[C@H](O)[C@H]2NC(=O)Cn2cc(C3CCCCC3)nn2)cc(C)c1O (stereo partly shown)
Name the one with the greater EC50 value, either I or II as given. # respond with the chosen item's label
II
(II: 44.6 µM, I: 4.19 µM)
